The origin of these recorded values is patent US20260258115A1.

System Under Test: RSV F on RSV subtype A virus (RSV-A2) (Respiratory Syncytial Virus, subtype A, …, UniProt P03420 26-574)
Protocol Notes: cell-based or functional assay
Neutralization - RSV A2 IC50 (pM) for assorted binders
The figure you give is taken to be in pM; do not add the unit.

| Binder | Neutralization - RSV A2 IC50 (pM) |
| --- | --- |
| ADI-20998 (antibody, V domains shown) VH: QVQLVQSGGGVVQPGRSLRLSCAASGFTLSTYGMHWVRQAPGKGLEWVAVIYYDESNKFYADSVQGRFTISRDDSKNTLFLQMNSLRAEDTAVYYCARESRPRGYSYSDFDSWGQGTLVTVSS VL: QPGLTQPRSVSGSPGQSVTISCTGTSSDVGTFNYVSWYQQHPGKAPKLMIYDVNQRPSGVPDRFSGSKSGNTASLTISGLQAEDEADYYCCAYAGYYSFGGGTKLTVL | 74 |
| ADI-41594 (antibody, V domains shown) VH: EVQLVESGGGLVKPGGSLRLSCAASGFSFSSYYMNWVRQAPGKGLEWVSSISPSSSYTNYADSVKGRFTISRDNAKDSLYLQMNSLRAEDTAVYYCARDGLLGITIFGVVQDYWGQGTLVTVSS VL: QSVVTQPPSVSGAPGQRVTISCTGSSSNIGAGYDVHWYQQLPGTAPKLLIYGNTNRPSGVPDRFSASKSGTSASLAITGLQAEDEADYYCQSYDSSLSVVFGGGTKLTVL | 208 |

Moving on to the next binder.
Sample ADI-41203 (antibody, V domains shown) VH: QVQLVQSGAEVRKPGESLKISCKASGYRFTNYWIGWVRQMPGKGLEWMGVIYPGDSDTRYSPSFQGQVTMSADKSTNTAYLQWSSLKASDTAIYYCVSLYSDYDYGALDYWGQGTLVTVSS VL: EIVMTQSPATLSVSPGERATLSCRASENVGRNLAWYQQKPGQAPRLLIYGASIRATGILARFSGSGSGTEYTLTISSLQSEDFAVYYCQQYHDWPSFTFGPGTKVDIK — what was its Neutralization - RSV A2 IC50 (pM)? 23.9
